molecular target: STING (Homo sapiens, UniProt Q86WV6, G230A/H232R/R293Q/R71H); construct: host or cells: THP-1 and THP-1 Lucia ISG cells; test: Interferon-β induction: THP-1 Lucia ISG reporter cell line; assay type: cell-based; settings: THP-1 Lucia ISG cells, 24 hours incubation, luciferase reporter; read-out: THP-1 Lucia ISG Cells IFN-β EC50
Sequence (Q86WV6 whole entry R71H/G230A/H232R/R293Q): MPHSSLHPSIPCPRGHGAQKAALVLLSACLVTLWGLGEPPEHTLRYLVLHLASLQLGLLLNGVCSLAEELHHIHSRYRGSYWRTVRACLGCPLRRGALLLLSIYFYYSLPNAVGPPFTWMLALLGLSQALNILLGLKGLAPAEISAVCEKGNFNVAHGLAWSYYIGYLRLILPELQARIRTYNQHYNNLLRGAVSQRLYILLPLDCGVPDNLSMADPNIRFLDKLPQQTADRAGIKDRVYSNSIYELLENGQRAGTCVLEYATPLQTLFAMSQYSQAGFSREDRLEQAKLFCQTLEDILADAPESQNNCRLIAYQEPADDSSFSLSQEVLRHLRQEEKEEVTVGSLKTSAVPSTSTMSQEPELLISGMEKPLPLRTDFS
pEC50 for assorted molecules
Scale: pEC50 equals -log10([C]), with [C] in mol/L.

CCn1nc(C)c(F)c1-c1nc(-c2cc(C(N)=O)cc3c2cnn3C)n[nH]1: 6.74

We now examine a further molecule.
Dear colleague, please send me the reported pEC50 for `CCn1nc(C)c(F)c1-c1nc(-c2cc(C(N)=O)cc3c2cnn3CCN2CCOCC2)n[nH]1` when you can.
4.56

---

target: R232-STING (Homo sapiens, UniProt Q86WV6, H232R); assay: biochemical
Sequence (Q86WV6 155-341 H232R): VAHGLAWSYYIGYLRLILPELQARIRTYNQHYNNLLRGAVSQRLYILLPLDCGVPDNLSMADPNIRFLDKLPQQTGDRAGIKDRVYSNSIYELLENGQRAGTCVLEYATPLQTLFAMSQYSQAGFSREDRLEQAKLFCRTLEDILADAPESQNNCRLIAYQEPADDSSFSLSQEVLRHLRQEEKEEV
Parameter: pKi. Scope: all listed entries.
# pKi is unitless: minus log10 of the molar concentration; print number only

Known results for molecules:
CCn1nc(C)c(F)c1-c1nc(-c2cc(C(N)=O)cc3c2cnn3C)n[nH]1 [Example C02]: 8.05
CCn1nc(C)cc1-c1ncc(-c2cc(C(N)=O)cc3c2cnn3C)[nH]1 [ZZZ009]: 6.02

Note pKi for the molecule shown: CCn1nc(C)c(F)c1-c1nc(-c2cc(C(N)=O)cn3c(C)ncc23)n[nH]1 [Example F01]
7.03

Using the record for CCn1nc(C)cc1-c1csc(-c2cc(C(N)=O)cc3c2cnn3C)n1 [Example H01] , state its measured pKi.
7.06

For the molecule CCn1nc(C)cc1-c1n[nH]c(-c2cc(C(N)=O)cc3c2cnn3CCN2C3CCC2COC3)n1 [YY23] , give its measured pKi value.
6.34

Could you please provide reported pKi for CCn1nc(C)cc1-c1n[nH]c(-c2cc(C(N)=O)cc3c2cnn3CCCC(=O)O)n1 [YY02] ? Thanks!
7.07

---

target: R232-STING (Homo sapiens, UniProt Q86WV6, H232R); test: biochemical
Where a name gives a salt, the structure may show the parent alone.
// reported pKi for each item listed
Units for pKi: none; it is -log10 of a concentration expressed in mol/L.

Give pKi for the following compound: CCn1nc(C)cc1-c1n[nH]c(-c2cc(C(N)=O)cc3c2cnn3CCN2CC(F)C2)n1 [Example M01, trifluoroacetic acid salt]
6.30

---

target: R232-STING (Homo sapiens, UniProt Q86WV6, H232R); assay: biochemical
ASSAY_METRIC: pKi
On this scale, pKi is minus log10 of a concentration expressed in M (mol/L).

CCn1nc(C)cc1-c1nc(-c2nc(C(N)=O)cc3c2cnn3C)c(C(C)N)s1 (single isomer, unassigned) [Example W01]: 6.76
CCn1nc(C)cc1-c1nnc(-c2cc(C(N)=O)cc3c2cnn3C2CC3CNCC3C2)[nH]1 (centres unmarked) [YY13]: 6.37
CCn1nc(C)c(O)c1-c1nc(-c2nc(C(N)=O)cc3c2cnn3C)n(C)n1 [Example Q01]: 8.49
CCn1nc(C)cc1-c1n[nH]c(-c2cc(C(N)=O)cc3c2cnn3C)n1 [Example A01]: 7.60

Read the entry CCn1nc(C)cc1-c1n[nH]c(-c2cc(C(N)=O)cc3c2cnn3CCN2CCOC[C@H]2CO)n1 [ZZZ120] and write its reported pKi.
6.04

---

biological target: R232-STING (Homo sapiens, UniProt Q86WV6, H232R); test: biochemical
Quick list: pKi per entry.
Scale: pKi equals -log10([C]), with [C] in mol/L.

Illustrative cases are given below, each with its answer.
CCCN1CCC[C@@H]1Cn1ncc2c(-c3nnc(-c4cc(C)nn4CC)[nH]3)cc(C(N)=O)cc21 (racemic): 6.15
CCn1nc(C)cc1-c1nc(-c2nc(C(N)=O)cc3c2cnn3C)c(CN)o1: 7.56

Moving on to the next molecule.
Return pKi for the following molecule: `CCn1nc(C)c(F)c1-c1nc(-c2nc(C(N)=O)cc3c2cnn3C)c(CN)s1`
7.94

---

molecular target: R232-STING (Homo sapiens, UniProt Q86WV6, H232R); assay: biochemical
ASSAY_METRIC: pKi
Convention used: pKi is expressed as -log10 of the molar concentration.

# return recorded pKi for input CCn1nc(C)cc1-c1n[nH]c(-c2cc(C(N)=O)cc3c2cnn3CCN2CC3CCC2CO3)n1 (centres unmarked) [YY25]
6.67

For the molecule CCn1nc(C)cc1-c1nc(-c2nc(C(N)=O)cc3c2cnn3C)c(CN)s1 [Example R01] , give its measured pKi value.
7.48

Return pKi for the following molecule: CCn1nc(C)cc1-c1nc(-c2nc(C(N)=O)cc3c2cnn3C)n(CCN(C)C)n1 [ZZZ125]
6.29

Item CCn1nc(C)c(O)c1-c1nc(-c2nc(C(N)=O)cc3c2cnn3C)co1 [Example AE01] : provide pKi
8.59

Query pKi for CCn1nc(C)cc1-c1n[nH]c(-c2cc(C(N)=O)cc3c2cnn3CCN2CC3CCC3C2)n1 (centres unmarked) [ZZZ110]
6.21

Please list pKi recorded for the molecule CCn1nc(C)cc1-c1n[nH]c(-c2cc(C(N)=O)cc3c2cnn3CCN2CC(O)C2)n1 [ZZZ100]
6.07

Answer with the recorded pKi for the molecule listed here: CCn1nc(C)cc1-c1n[nH]c(-c2cc(C(N)=O)cc3c2cnn3CCN2C[C@@H]3C[C@H]2CO3)n1 [ZZZ113]
6.14

---

Target: STING (Homo sapiens, UniProt Q86WV6, G230A/H232R/R293Q/R71H)
Construct: host or cells: THP-1 and THP-1 Lucia ISG cells
Assay: Interferon-β induction: THP-1 Lucia ISG reporter cell line
Format: cell-based
Settings: THP-1 Lucia ISG cells, 24 hours incubation, luciferase reporter; read-out: THP-1 Lucia ISG Cells IFN-β EC50
Description: Interferon-β Induction: THP-1 ISG Reporter Cell Line THP-1 Lucia™ ISG cells (InvivoGen) express the secreted luciferase “Lucia” reporter gene under the control of an IRF-inducible composite promotor comprised of five interferon response elements. THP-1 Lucia™ ISG cells were grown in RPMI media plus 2 mM L-glutamine, 10% fetal bovine serum, and 0.5% Pen-Strep. […] The luminescence signal was measured using a Perkin-Elmer Envision microplate reader. […]
ASSAY_METRIC: pEC50
Please report pEC50 as the negative decimal logarithm of the molar concentration, giving only the number.

Solved entries (count: 4):
CCn1nc(C)cc1-c1nc(-c2nc(C(N)=O)cc3c2cnn3C)c(C(C)N)s1 (single isomer, unassigned) [Example W02]: 5.61
CCn1nc(C)c(F)c1-c1nc(-c2nc(C(N)=O)cc3c2cnn3CC(CO)CO)n(C)n1: 5.13
Cc1nn(CCCO)c(-c2n[nH]c(-c3nc(C(N)=O)cc4c3cnn4C)n2)c1O: 6.74
Cc1cc(-c2nc(-c3nc(C(N)=O)cc4c3cnn4C)c(CN)s2)n(CCCO)n1: 5.28

Please report the measured pEC50 for `CCn1nc(C)cc1-c1n[nH]c(-c2cc(C(N)=O)cc3nn(C)cc23)n1`
4.34

---

molecular target: STING (Homo sapiens, UniProt Q86WV6, G230A/H232R/R293Q/R71H); construct: host or cells: THP-1 and THP-1 Lucia ISG cells; test: Interferon-β induction: THP-1 Lucia ISG reporter cell line; type: cell-based; conditions: THP-1 Lucia ISG cells, 24 hours incubation, luciferase reporter; read-out: THP-1 Lucia ISG Cells IFN-β EC50
Exam item: assign Criterion met to entries whose EC50 is below 0.7 µM and Criterion not met to entries at or above 0.7 µM. Note that a value of exactly 0.7 µM receives Criterion not met.

See these solved cases before continuing.
CCn1nc(C)cc1-c1n[nH]c(-c2cc(C(N)=O)cc3c2cnn3CCN2C[C@H](C)OC[C@@H]2C)n1: Criterion not met
CCn1nc(C)cc1-c1n[nH]c(-c2c(F)c(C(N)=O)cc3c2cnn3C)n1: Criterion met
CCn1nc(C)cc1-c1nnc(-c2cc(C(N)=O)cc3c2cnn3C2CC3CNCC3C2)[nH]1 (centres unmarked): Criterion not met
CCn1nc(C)c(O)c1-c1nc(-c2nc(C(N)=O)cc3c2cnn3C)c(CN)o1: Criterion met
Cc1nn(CCCN)c(-c2n[nH]c(-c3nc(C(N)=O)cc4c3cnn4C)n2)c1O: Criterion not met
Cc1cc(-c2n[nH]c(-c3c(F)c(C(N)=O)cc4c3cnn4C)n2)n(CCC(=O)O)n1: Criterion not met
CCn1nc(C)cc1-c1nnc(-c2cc(C(N)=O)cc3c2cnn3[C@H](C)CN2CCOCC2)[nH]1: Criterion not met

Please examine the following record next.
Is 0.7 µM strictly greater than the molecule's reported EC50? molecule: `CCn1nc(C)cc1-c1n[nH]c(-c2cc(C(N)=O)cc3c2cnn3CCN2CC3CCC(C2)O3)n1`
Criterion not met
